TEST SYSTEM: T1, hANG2-His (human, UniProt O15123 19-496, limits assumed)
T1 construct: also called 人源ANG2; ANGPT2; not shown: C-terminal His tag
T1 sequence (looked up): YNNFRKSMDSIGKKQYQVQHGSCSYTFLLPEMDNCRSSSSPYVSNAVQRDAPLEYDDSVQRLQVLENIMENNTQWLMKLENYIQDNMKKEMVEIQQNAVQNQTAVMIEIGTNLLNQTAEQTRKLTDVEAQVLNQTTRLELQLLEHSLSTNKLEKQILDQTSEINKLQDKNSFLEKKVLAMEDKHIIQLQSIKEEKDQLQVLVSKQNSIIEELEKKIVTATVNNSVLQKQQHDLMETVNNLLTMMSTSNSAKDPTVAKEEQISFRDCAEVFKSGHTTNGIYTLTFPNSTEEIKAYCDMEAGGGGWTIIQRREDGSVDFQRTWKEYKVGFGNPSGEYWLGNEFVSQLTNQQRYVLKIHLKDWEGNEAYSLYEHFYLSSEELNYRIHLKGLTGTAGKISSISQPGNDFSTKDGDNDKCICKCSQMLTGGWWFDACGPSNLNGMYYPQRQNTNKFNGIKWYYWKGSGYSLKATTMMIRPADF
ASSAY NAME: BLI (Gator), antibody captured on sensor, hANG2-His 100/50/25 nM

# BINDER, Kd
rows = [
    ("抗体78A74-25 (antibody, IgG1, V domains shown) VH: QVQLVESGGGLVKPGGSLRLSCAASGFTFSSYSMNWVRQAPGKGLEWVAVISYDGSNKYYADSVKGRFTISRDNSKNTLYLQMNSLRAEDTAVYYCAKATLDGYTAGYYYGMDVWGQGTTVTVSS VL: EIVLTQSPATLSLSPGERATLSCRASQSVSSYLAWYQQKPGQAPRLLIYDASNRATGIPARFSGSGSGTDFTLTISSLEPEDFAVYYCQQRSNWPPELYFGQGTKVEIK", "0.828 nM"),
    ("抗体78A74-7 (antibody, IgG1, V domains shown) VH: QVQLVESGGGLVKPGGSLRLSCAASGFTFSSYSMNWVRQAPGKGLEWVAVISYDGSNKYYADSVKGRFTISRDNSKNTLYLQMNSLRAEDTAVYYCAKATLDGYTAGYYYGMDVWGQGTTVTVSS VL: EIVLTQSPATLSLSPGERATLSCRASQSVSSYLAWYQQKPGQAPRLLIYDASNRATGIPARFSGSGSGTDFTLTISSLEPEDFAVYYCQLMSNWPPEWTFGQGTKVEIK", "0.544 nM"),
]
